# tgt: AAK1 (Homo sapiens)
# Construct: NP_055726.2
# test.summary: HEK281 cell-based assay (CBA)
# test.settings: HEK293F cells transfected with full length human AAK1 and AP2M1; phospho-mu2 Western blot; 3 hours incubation
pIC50: −log10 of the molar value.
attribute.measured: pIC50

Entry COc1ncccc1-c1cnn2ccc(N3CCN(C(=O)C4(N)CCOC4)CC3)nc12 (stereo not drawn) — recorded pIC50 = ≥ 7.00

pIC50 reported for this compound `COc1ncccc1-c1cnn2ccc(N3CCN(C(=O)O[C@H]4CCOC4)CC3)nc12` : ≥ 8.00

Value of pIC50 reported for the compound `CCOC(=O)N1CCN(c2ccn3ncc(-c4cc(F)cnc4OC)c3n2)CC1` is ≥ 7.00

response.value for `COC[C@H](C)OC(=O)N1CCN(c2ccn3ncc(-c4cccnc4OC)c3n2)CC1` (field: pIC50) = ≥ 8.00

// sample `COc1ncc(C)cc1-c1cnn2ccc(N3CCN(C(=O)OC(C)C)CC3)nc12` , its pIC50 was ≥ 8.00

The recorded pIC50 for `COc1ncccc1-c1cnn2ccc(N3CCN(C(=O)[C@@H](N)C(C)C)CC3)nc12` is ≥ 8.00

Entry under test: `CC(C)[C@H](N)C(=O)N1CCN(c2ccn3ncc(-c4ccc(F)cc4)c3n2)CC1` . Its pIC50 was ≥ 8.00

pIC50 reported for this compound `CN[C@@H](CC(C)C)C(=O)N1CCN(c2ccn3ncc(-c4cccnc4OC)c3n2)CC1` : ≥ 8.00

Per the records, this compound ( `CC(C)COC(=O)N(C)CCNc1ccn2ncc(-c3ccc(C(N)=O)cc3)c2n1` ) has pIC50 equal to ≥ 8.00

====

# tgt: AAK1 (Homo sapiens, UniProt Q2M2I8)
# Construct: NP_055726.2
# Sequence (Q2M2I8 1-863 isoform Q2M2I8-2): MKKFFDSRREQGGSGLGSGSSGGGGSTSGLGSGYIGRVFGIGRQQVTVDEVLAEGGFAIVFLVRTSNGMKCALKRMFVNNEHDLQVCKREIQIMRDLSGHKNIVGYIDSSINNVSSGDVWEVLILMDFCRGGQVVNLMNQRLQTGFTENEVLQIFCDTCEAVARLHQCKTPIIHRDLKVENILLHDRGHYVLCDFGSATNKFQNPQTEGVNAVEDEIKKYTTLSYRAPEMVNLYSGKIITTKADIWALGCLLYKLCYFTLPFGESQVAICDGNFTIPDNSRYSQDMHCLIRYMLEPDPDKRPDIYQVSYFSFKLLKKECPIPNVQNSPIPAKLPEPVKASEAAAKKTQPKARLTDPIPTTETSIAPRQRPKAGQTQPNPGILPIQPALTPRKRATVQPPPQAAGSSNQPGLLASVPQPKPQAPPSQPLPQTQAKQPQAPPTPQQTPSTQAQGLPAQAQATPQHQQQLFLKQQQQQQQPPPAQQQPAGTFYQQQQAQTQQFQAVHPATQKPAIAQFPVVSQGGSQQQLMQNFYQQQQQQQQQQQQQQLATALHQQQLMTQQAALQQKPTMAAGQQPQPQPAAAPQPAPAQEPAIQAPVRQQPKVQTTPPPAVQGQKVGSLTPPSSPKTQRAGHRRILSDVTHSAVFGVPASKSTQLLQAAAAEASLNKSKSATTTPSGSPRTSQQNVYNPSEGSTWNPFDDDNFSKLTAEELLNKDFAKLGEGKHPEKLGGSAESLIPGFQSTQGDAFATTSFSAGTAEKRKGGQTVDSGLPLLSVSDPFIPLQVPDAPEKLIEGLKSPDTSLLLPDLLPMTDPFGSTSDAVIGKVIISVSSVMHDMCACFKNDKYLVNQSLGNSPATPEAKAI
# test.summary: HEK281 cell-based assay (CBA)
# test.settings: HEK293F cells transfected with full length human AAK1 and AP2M1; phospho-mu2 Western blot; 3 hours incubation
attribute.measured: IC50

Entry `CC(C)(C)[C@H](N)C(=O)N1CCN(c2ccn3ncc(-c4ccccc4)c3n2)CC1` , IC50 reported as ≤ 0.1 µM

Per the record, `[2H]C1([2H])N(C(=O)OC(C)C)C([2H])([2H])C([2H])([2H])N(c2ccn3ncc(-c4ccc(C)nc4OC)c3n2)C1([2H])[2H]` has IC50 of ≤ 0.01 µM

Item: `CC(C)OC(=O)N1CCN(c2ccn3ncc(-c4ccc(OCCN)cc4)c3n2)CC1` | IC50: ≤ 0.1 µM

Input `COC[C@@H](C)OC(=O)N1CCN(c2ccn3ncc(-c4cccnc4OC)c3n2)CC1` . Output IC50: ≤ 1 µM

Recorded result, `COc1nc(C)ccc1-c1cnn2ccc(N3CC[C@H](N(C)C(=O)OC(C)C)C3)nc12` , IC50: ≤ 0.1 µM

====

# tgt: AAK1 (Homo sapiens, UniProt Q2M2I8)
# Construct: NP_055726.2
# test.summary: P81 filter plate assay
# Format: biochemical
# test.settings: full-length human AAK1, Mu2 substrate, 33P-ATP
# Procedure: Compounds were serially diluted into a Labcyte LDV plate (Labcyte, cat#LP-0200) using a Mutiprobe (PerkinElmer) and Biomek FX (Beckman Coulter) so that the highest compound concentration was at 96 μM. […] The bottom of each filter plate was sealed followed by addition of 20 μl Microscint 40 to each well, sealing the top of the plates with Flashplate cover, and then waiting one hour until reading on the TopCount (PerkinElmer).
pIC50: −log10 of the molar value.
attribute.measured: pIC50

`COCc1ccccc1-c1cnn2ccc(N3CCN(C(=O)OC(C)C)CC3)nc12` yielded pIC50 of ≥ 6.00

`CC(C)[C@H](N)C(=O)N1CCN(c2ccn3ncc(-c4ccccc4)c3n2)CC1` yielded pIC50 of ≥ 8.00

// pIC50 value for `COc1ncccc1-c1cnn2ccc(N3CCN(C(=O)[C@@H](N)C(C)C)CC3)nc12` : ≥ 8.00

Record summary for `COc1ncccc1-c1cnn2ccc(N(C)CCCOC(C)(C)C)nc12` : reported pIC50 = ≥ 7.00

Record summary for `COc1nc(C)ccc1-c1cnn2ccc(NCCCOC(C)(C)C)nc12` : reported pIC50 = ≥ 8.00
